B1: glmS ribozyme (parent)
chain: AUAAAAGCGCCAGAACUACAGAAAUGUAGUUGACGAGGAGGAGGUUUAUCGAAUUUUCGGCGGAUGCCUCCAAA

# Variants of: B1
# protocol text: self-cleavage kobs at 640 uM GlcN6P; higher = faster cleavage; RNA array
# conditions used: with glucosamine-6-phosphate
Fewer inactive variants are shown than the library holds.
Catalogue of self-cleavage kobs at 640 uM GlcN6P values
Number in s⁻¹, nothing else.

Solved cases (4 shown):
- A52U C71U: 0.0001
- A15G C68A: 5.49e-05
- A53U G66A: 0.00327
- C19A G40C: 0.000434

[Q] Determine from records and report self-cleavage kobs at 640 uM GlcN6P for A15G G66C
[A] 0.000368

[Q] Determine from records and report self-cleavage kobs at 640 uM GlcN6P for `A1C`
[A] 0.0192

[Q] Determine from records and report self-cleavage kobs at 640 uM GlcN6P for A12U U31A
[A] 0.00457

[Q] Determine from records and report self-cleavage kobs at 640 uM GlcN6P for C58U C70A
[A] 3.84e-05

[Q] Determine from records and report self-cleavage kobs at 640 uM GlcN6P for C50A A52C C61A C68U
[A] 0.000706
